Where do these numbers come from? They come from the kinase profiling compilation of Christmann-Franck et al. (2016).

test system: MKNK1 (human), Q9BUB5 [T385D; 165-205 del]; assay: radiometric filter-binding kinase assay, Kinase HotSpot; details: compound 0.5 µM; ATP 10 µM
Sequence (Q9BUB5 whole entry, looked up, stated change not applied): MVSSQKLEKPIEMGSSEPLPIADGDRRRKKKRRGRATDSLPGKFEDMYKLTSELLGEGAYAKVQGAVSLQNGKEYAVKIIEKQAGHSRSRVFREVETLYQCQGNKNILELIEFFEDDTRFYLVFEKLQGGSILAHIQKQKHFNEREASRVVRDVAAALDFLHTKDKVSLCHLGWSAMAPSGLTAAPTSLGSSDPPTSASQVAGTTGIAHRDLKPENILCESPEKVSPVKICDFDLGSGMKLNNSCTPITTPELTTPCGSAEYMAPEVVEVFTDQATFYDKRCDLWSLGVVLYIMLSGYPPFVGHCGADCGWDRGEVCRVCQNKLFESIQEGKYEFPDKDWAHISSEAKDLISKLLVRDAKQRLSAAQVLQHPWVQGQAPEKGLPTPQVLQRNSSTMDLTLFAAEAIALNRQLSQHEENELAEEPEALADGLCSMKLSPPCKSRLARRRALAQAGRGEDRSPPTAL
outcome-measure: residual activity (%)
Quick reminder: number only, in %, skip the unit.

Some entries whose results are on file:
Give recorded residual activity with MKNK1 (human), Q9BUB5 [T385D; 165-205 del] for the following molecule: Cn1nc2c3c(cccc31)C(=O)c1ccccc1-2
105

Give recorded residual activity with MKNK1 (human), Q9BUB5 [T385D; 165-205 del] for the following molecule: Nc1nc(Nc2ccc(S(N)(=O)=O)cc2)nn1C(=O)c1c(F)cccc1F
90.9

Give recorded residual activity with MKNK1 (human), Q9BUB5 [T385D; 165-205 del] for the following molecule: CS(=O)c1ccc(-c2nc(-c3ccc(F)cc3)c(-c3ccncc3)[nH]2)cc1 (stereo not given)
98.5

---
Give recorded residual activity with MKNK1 (human), Q9BUB5 [T385D; 165-205 del] for the following molecule: CCOC(=O)c1c(C)[nH]c(/C=C2\C(=O)Nc3ccccc32)c1C
112

Give recorded residual activity with MKNK1 (human), Q9BUB5 [T385D; 165-205 del] for the following molecule: COc1cc2c(cc1OC)-c1[nH]nc(Nc3cccc(F)c3)c1C2
89.8

Give recorded residual activity with MKNK1 (human), Q9BUB5 [T385D; 165-205 del] for the following molecule: O=C(CCCc1ccc(-c2ccccc2F)cc1)Nc1ccc(O)cc1
111

Give recorded residual activity with MKNK1 (human), Q9BUB5 [T385D; 165-205 del] for the following molecule: Ic1cccc(CSc2nnc(-c3ccncc3)o2)c1
109

Give recorded residual activity with MKNK1 (human), Q9BUB5 [T385D; 165-205 del] for the following molecule: CO[C@@H]1[C@H](N(C)C(=O)c2ccccc2)C[C@H]2O[C@]1(C)n1c3ccccc3c3c4c(c5c6ccccc6n2c5c31)C(=O)NC4
92.7

Give recorded residual activity with MKNK1 (human), Q9BUB5 [T385D; 165-205 del] for the following molecule: C[C@@H]1CCN(C(=O)CC#N)C[C@@H]1N(C)c1ncnc2[nH]ccc12
89.9

Give recorded residual activity with MKNK1 (human), Q9BUB5 [T385D; 165-205 del] for the following molecule: O=C1Nc2ccccc2/C1=C1/Nc2ccccc2/C1=N\OCCC(O)CO (stereo not given)
95.3

====

target: LTK (human) (UniProt P29376); assay: radiometric filter-binding kinase assay, Kinase HotSpot; conditions: compound 0.5 µM; ATP 10 µM
Sequence (P29376 whole entry, looked up): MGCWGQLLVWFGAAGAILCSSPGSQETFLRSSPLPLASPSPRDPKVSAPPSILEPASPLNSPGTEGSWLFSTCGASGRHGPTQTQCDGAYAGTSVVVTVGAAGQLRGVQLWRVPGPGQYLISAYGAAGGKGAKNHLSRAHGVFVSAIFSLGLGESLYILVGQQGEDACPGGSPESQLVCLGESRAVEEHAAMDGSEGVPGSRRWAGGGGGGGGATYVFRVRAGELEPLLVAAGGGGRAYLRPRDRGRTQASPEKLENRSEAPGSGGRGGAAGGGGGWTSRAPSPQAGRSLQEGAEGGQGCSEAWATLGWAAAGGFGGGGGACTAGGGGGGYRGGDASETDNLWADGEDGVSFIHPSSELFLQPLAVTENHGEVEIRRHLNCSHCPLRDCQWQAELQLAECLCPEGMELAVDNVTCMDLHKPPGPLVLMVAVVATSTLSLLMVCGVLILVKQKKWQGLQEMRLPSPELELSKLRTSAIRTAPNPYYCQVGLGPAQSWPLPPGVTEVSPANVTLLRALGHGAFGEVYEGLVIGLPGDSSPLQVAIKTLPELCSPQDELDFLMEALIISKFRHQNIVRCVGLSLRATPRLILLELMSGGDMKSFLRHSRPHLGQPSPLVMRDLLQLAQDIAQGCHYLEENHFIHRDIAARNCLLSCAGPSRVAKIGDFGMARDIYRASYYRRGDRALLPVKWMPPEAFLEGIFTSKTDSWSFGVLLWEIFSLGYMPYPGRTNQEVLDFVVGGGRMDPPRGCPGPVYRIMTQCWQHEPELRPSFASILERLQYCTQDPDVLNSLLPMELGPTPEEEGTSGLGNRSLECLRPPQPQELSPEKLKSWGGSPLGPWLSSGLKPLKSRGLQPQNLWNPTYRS
outcome-measure: residual activity (%)
Quick reminder: number only, in %, skip the unit.

Some entries whose results are on file:
I have this compound here, Fc1ccc(-c2nc3n(c2-c2ccncc2)CCS3)cc1 , and I need its recorded residual activity.
102

I have this compound here, CN(C)CCCn1cc(C2=C(c3c[nH]c4ccccc34)C(=O)NC2=O)c2ccccc21 , and I need its recorded residual activity.
99.5

I have this compound here, O=C1c2ccccc2-c2n[nH]c3cccc1c23 , and I need its recorded residual activity.
77.8

I have this compound here, c1ccc2c(-c3ccncc3)c[nH]c2c1 , and I need its recorded residual activity.
103

I have this compound here, CN(C)c1ccc(/C=C2\C(=O)Nc3ccccc32)cc1 , and I need its recorded residual activity.
96.8

I have this compound here, NCCNc1ncc(C(N)=O)c(Nc2cccc(C(F)(F)F)c2)n1 , and I need its recorded residual activity.
84.8

I have this compound here, N#C/C(=C\c1ccc(O)c(O)c1)C(=O)NCc1ccccc1 , and I need its recorded residual activity.
91.4

I have this compound here, NC(=O)c1cccc(-c2cc(Nc3ccc(OC(F)(F)F)cc3)ncn2)c1 , and I need its recorded residual activity.
111

---
I have this compound here, COc1cc2ncnc(Nc3ccc(OCc4ccccc4)cc3)c2cc1OC , and I need its recorded residual activity.
98.6

I have this compound here, Ic1cccc(CSc2nnc(-c3ccncc3)o2)c1 , and I need its recorded residual activity.
103

I have this compound here, CN1CCN(c2ccc3nc(-c4c(N)c5c(F)cccc5[nH]c4=O)[nH]c3c2)CC1 , and I need its recorded residual activity.
92.5

I have this compound here, COc1cc(Nc2c(C#N)cnc3cc(OCCCN4CCN(C)CC4)c(OC)cc23)c(Cl)cc1Cl , and I need its recorded residual activity.
57.7

I have this compound here, CC(C)(C)c1cc(C=C(C#N)C#N)cc(Br)c1O , and I need its recorded residual activity.
96.5

====

target: CDK9 CCNK (human) (UniProt O75909+P50750); assay: radiometric filter-binding kinase assay, Kinase HotSpot; conditions: compound 0.5 µM; ATP 10 µM
Sequence (O75909 whole entry, looked up): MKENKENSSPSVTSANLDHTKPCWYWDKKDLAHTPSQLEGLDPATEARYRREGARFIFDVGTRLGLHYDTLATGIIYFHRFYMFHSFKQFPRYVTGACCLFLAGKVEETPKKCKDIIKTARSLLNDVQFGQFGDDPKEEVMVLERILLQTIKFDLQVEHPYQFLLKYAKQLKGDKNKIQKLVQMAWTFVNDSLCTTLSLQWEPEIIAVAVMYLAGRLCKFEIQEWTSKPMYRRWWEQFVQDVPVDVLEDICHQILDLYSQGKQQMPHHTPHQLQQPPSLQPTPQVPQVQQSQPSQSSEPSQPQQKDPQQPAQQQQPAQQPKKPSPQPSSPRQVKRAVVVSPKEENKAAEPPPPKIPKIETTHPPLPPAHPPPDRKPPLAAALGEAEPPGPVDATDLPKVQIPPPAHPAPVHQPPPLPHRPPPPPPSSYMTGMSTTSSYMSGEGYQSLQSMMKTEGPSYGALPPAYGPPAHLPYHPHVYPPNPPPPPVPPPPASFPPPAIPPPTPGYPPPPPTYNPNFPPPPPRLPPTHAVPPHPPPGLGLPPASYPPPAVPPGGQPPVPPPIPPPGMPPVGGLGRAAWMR
Sequence (P50750 whole entry, looked up): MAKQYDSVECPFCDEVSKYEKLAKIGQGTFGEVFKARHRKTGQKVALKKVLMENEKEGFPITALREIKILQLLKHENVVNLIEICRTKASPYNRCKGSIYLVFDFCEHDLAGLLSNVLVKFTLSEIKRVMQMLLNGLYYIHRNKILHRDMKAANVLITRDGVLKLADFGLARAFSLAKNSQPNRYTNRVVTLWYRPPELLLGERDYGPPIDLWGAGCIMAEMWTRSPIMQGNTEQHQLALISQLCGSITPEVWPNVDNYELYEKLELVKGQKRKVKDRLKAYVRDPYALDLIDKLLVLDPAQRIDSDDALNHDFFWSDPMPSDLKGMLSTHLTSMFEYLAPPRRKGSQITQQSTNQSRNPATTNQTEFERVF
residual activity reference
Quick reminder: number only, in %, skip the unit.

I have this compound here, O=C(c1cc2cc(O)ccc2[nH]1)c1cc2cc(O)ccc2[nH]1 , and I need its recorded residual activity.
49.5

I have this compound here, COc1ccc2c(c1)/C(=C/c1cnc[nH]1)C(O)=N2 , and I need its recorded residual activity.
59.4

I have this compound here, CO[C@@H]1[C@H](N(C)C(=O)c2ccccc2)C[C@H]2O[C@]1(C)n1c3ccccc3c3c4c(c5c6ccccc6n2c5c31)C(=O)NC4 , and I need its recorded residual activity.
71

---
I have this compound here, CS(=O)(=O)CCNCc1ccc(-c2ccc3ncnc(Nc4ccc(OCc5cccc(F)c5)c(Cl)c4)c3c2)o1 , and I need its recorded residual activity.
103

I have this compound here, Cn1c2ccccc2c2c3c(c4c5ccccc5n(CCC#N)c4c21)CNC3=O , and I need its recorded residual activity.
55.2

I have this compound here, CN(C)c1ccc(/C=C2\C(=O)Nc3ccccc32)cc1 , and I need its recorded residual activity.
100

I have this compound here, Fc1ccc(-c2nc3n(c2-c2ccncc2)CCS3)cc1 , and I need its recorded residual activity.
101

I have this compound here, COc1ccc(C(=O)Nc2sc3c(c2C(N)=O)CCCC3)cc1OC , and I need its recorded residual activity.
85.7

I have this compound here, COc1cc2ncnc(Nc3ccc(OCc4ccccc4)cc3)c2cc1OC , and I need its recorded residual activity.
103

I have this compound here, COc1ccc(S(=O)(=O)N(CCO)c2ccccc2CN(C)C/C=C/c2ccc(Cl)cc2)cc1 , and I need its recorded residual activity.
99.1

====

target: CAMKK2 (human) (UniProt Q96RR4); assay: radiometric filter-binding kinase assay, Kinase HotSpot; conditions: compound 0.5 µM; ATP 10 µM
Sequence (Q96RR4 whole entry, looked up): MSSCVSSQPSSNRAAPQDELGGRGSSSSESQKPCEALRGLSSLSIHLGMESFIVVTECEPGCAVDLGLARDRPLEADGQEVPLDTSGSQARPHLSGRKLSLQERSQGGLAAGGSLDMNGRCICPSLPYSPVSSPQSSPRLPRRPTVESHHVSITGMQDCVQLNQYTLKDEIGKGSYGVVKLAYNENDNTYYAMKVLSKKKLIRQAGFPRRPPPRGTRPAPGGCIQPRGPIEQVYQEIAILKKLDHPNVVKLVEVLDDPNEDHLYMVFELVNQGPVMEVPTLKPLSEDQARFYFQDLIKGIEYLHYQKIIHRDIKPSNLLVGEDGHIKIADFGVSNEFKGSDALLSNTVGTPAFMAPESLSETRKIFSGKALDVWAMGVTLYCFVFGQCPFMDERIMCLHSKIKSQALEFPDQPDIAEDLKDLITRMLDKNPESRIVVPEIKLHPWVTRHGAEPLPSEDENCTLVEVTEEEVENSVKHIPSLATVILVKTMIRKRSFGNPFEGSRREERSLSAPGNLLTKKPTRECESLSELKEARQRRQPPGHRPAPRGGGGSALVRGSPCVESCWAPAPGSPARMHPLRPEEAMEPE
outcome-measure: residual activity
The reply should read as a number followed by its unit.

Give recorded residual activity with CAMKK2 (human) (UniProt Q96RR4) for the following compound: CC(C)(C)c1cc(C=C(C#N)C#N)cc(Br)c1O
92.5%

---
Give recorded residual activity with CAMKK2 (human) (UniProt Q96RR4) for the following compound: O=C1Nc2ccc(Br)cc2/C1=C\c1cc2c([nH]1)CCCC2
68.1%

Give recorded residual activity with CAMKK2 (human) (UniProt Q96RR4) for the following compound: CCCCc1c(-c2ccc(OC)cc2)[nH]c2nccnc12
79.1%

Give recorded residual activity with CAMKK2 (human) (UniProt Q96RR4) for the following compound: CN(C)CCCn1cc(C2=C(c3c[nH]c4ccccc34)C(=O)NC2=O)c2ccccc21
59.8%

Give recorded residual activity with CAMKK2 (human) (UniProt Q96RR4) for the following compound: N#Cc1c[nH]c2c[nH]/c(=N\Cc3cccnc3)cc2/c1=N\c1ccc(F)c(Cl)c1
90.1%

Give recorded residual activity with CAMKK2 (human) (UniProt Q96RR4) for the following compound: COc1cc(Nc2c(C#N)cnc3cc(OCCCN4CCN(C)CC4)c(OC)cc23)c(Cl)cc1Cl
85.1%

====

target: PDGFRB (human) (UniProt P09619); test: radiometric filter-binding kinase assay, Kinase HotSpot; details: compound 0.5 µM; ATP 10 µM
Sequence (P09619 whole entry, looked up): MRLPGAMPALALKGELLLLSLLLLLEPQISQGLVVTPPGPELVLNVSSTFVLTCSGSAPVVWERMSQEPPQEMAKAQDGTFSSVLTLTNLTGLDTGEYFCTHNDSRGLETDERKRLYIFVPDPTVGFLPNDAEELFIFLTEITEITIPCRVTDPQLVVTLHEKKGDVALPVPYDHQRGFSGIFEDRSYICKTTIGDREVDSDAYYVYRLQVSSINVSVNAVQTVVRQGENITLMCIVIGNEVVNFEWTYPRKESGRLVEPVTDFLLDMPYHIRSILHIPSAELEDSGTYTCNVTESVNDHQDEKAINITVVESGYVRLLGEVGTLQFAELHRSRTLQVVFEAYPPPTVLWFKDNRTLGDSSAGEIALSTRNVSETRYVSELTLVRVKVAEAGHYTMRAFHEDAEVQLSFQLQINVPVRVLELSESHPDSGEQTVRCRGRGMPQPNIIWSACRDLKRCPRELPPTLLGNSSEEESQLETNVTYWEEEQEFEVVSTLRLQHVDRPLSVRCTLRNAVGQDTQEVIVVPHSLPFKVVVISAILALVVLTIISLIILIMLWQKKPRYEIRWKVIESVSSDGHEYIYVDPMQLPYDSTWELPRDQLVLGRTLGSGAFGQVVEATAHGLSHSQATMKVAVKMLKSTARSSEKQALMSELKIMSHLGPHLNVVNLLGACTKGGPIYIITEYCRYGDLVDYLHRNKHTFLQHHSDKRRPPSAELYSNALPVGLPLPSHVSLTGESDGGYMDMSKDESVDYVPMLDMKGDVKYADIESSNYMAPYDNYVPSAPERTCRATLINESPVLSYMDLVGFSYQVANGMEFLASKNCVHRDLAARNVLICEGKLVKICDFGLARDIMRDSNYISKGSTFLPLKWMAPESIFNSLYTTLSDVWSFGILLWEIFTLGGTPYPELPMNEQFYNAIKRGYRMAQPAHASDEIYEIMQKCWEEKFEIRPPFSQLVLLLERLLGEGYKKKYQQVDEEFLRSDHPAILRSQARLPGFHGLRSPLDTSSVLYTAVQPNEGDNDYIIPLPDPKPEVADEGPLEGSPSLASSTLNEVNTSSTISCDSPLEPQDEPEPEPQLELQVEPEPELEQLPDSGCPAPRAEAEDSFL
Entries whose residual activity is below 80% take criterion met; entries at or above 80% take criterion not met.

Please review the following examples before continuing.
Field: below-cutoff. Rule: recorded residual activity strictly less than 80%. Subject: O=C1NC(=O)c2c1c1c3ccccc3[nH]c1n1cncc21
criterion met

Field: below-cutoff. Rule: recorded residual activity strictly less than 80%. Subject: Cc1cncc2cccc(S(=O)(=O)N3CCCN(C(=O)CN)C[C@H]3C)c12
criterion not met

Field: below-cutoff. Rule: recorded residual activity strictly less than 80%. Subject: O=C1C(Cl)=C(N2C(=O)CCC2=O)C(=O)c2ccccc21
criterion not met

Field: below-cutoff. Rule: recorded residual activity strictly less than 80%. Subject: O=C(c1cc2cc(O)ccc2[nH]1)c1cc2cc(O)ccc2[nH]1
criterion met

Field: below-cutoff. Rule: recorded residual activity strictly less than 80%. Subject: Cn1c2ccccc2c2c3c(c4c5ccccc5n(CCC#N)c4c21)CNC3=O
criterion met

Field: below-cutoff. Rule: recorded residual activity strictly less than 80%. Subject: NC(=O)c1cccc(-c2cc(Nc3ccc(OC(F)(F)F)cc3)ncn2)c1
criterion not met

---
Field: below-cutoff. Rule: recorded residual activity strictly less than 80%. Subject: COc1ccc(S(=O)(=O)N(CCO)c2ccccc2CN(C)C/C=C/c2ccc(Cl)cc2)cc1
criterion not met

Field: below-cutoff. Rule: recorded residual activity strictly less than 80%. Subject: Cc1cccc(-c2nc(C(C)(C)C)[nH]c2-c2ccc3c(c2)OCO3)n1
criterion not met

Field: below-cutoff. Rule: recorded residual activity strictly less than 80%. Subject: COc1ccc(C(=O)Nc2sc3c(c2C(N)=O)CCCC3)cc1OC
criterion not met
